The reported numbers originate from patent US11591369B2.

Parameter percent internalized relative to the amount bound to DX3puroβ6 (αvβ6+) cells: see the listing below.
# Tested on: DX3puroβ6 (αvβ6+) cells
# EXPERIMENT: [18F]-radiolabeled peptide cell binding and internalization, DX3puroβ6 (αvβ6+) cells
# Type: cell-based, human
# REPORTED CONDITIONS: 1 hour
Primed or numbered codes have the meaning given here. Where no end group is shown, it is not given here. [ ]: non-standard residue; d: D form. The star is where a group is joined. (18F)FB = [18F] fluorobenzoyl group, O=C(c1ccc([18F])cc1)*; (18F)FB″ = [18F]fluorobenzoyl, O=C(c1ccc([18F])cc1)*; PEG12′ = polyethylene glycol, 12 units; PEG28″ = polyethylene glycol, 28 units; PEG2′ = polyethylene glycol, 2 units; PEG4′ = polyethylene glycol, 4 units; PEG8′ = polyethylene glycol, 8 units; PEG28′ = polyethylene glycol-28; Amb = aminomethylbenzoyl
OBSERVATION TYPE: percent internalized relative to the amount bound to DX3puroβ6 (αvβ6+) cells (%)

INSERT INTO results (substance, unit_of_measure, recorded_number) VALUES
  ('[^18F]FB-VGDLTYLKQKVART ({(18F)FB″}-VGDLTYLKQKVART) [N-[^18F]P1Q]', '%', 10.2),
  ('[^18F]FB-RSDLTPLF ({(18F)FB}-RSDLTPLF) [N-[^18F]KL3]', '%', 23.5),
  ('[^18F]FB-RGDLADLRQKVART ({(18F)FB″}-RGDLADLRQKVART) [N-[^18F]P3Q]', '%', 12.4),
  ('[^18F]FB-PEG12-VGDLTYLKQKVART-PEG28 ({(18F)FB″-PEG12′}-VGDLTYLKQKVART[PEG28″]) [N-[^18F]T1-d]', '%', 32),
  ('[^18F]FB-PEG4-VGDLTYLKQKVART-PEG28 ({(18F)FB″-PEG4′}-VGDLTYLKQKVART[PEG28″]) [N-[^18F]T1-b]', '%', 33.9),
  ('RGDLADLRK([^18F]FB) (RGDLADLRK((18F)FB″)) [[^18F]P3]', '%', 4.3),
  ('[^18F]FB-PEG28Amb-VGDLTYLKQKVART-PEG28 ({(18F)FB-PEG28′-Amb}-VGDLTYLKQKVART[PEG28′]) [N-[^18F]T1-g]', '%', 43.1),
  ('[^18F]FB-RSDLTPLFQKVART ({(18F)FB″}-RSDLTPLFQKVART) [N-[^18F]KL3Q]', '%', 22.8),
  ('[^18F]FB-PEG8-VGDLTYLKQKVART-PEG28 ({(18F)FB″-PEG8′}-VGDLTYLKQKVART[PEG28″]) [N-[^18F]T1-c]', '%', 36.9),
  ('VGDLTYLKK([^18F]FB) (VGDLTYLKK((18F)FB″)) [[^18F]P1]', '%', 3.7),
  ('[^18F]FB-Amb-VGDLTYLKQKVART-PEG28 ({(18F)FB″-Amb}-VGDLTYLKQKVART[PEG28′]) [N-[^18F]T1-f]', '%', 25.2),
  ('[^18F]FB-RGDLTYLKQKVART-PEG28 ({(18F)FB″}-RGDLTYLKQKVART[PEG28′]) [N-[^18F]T1-V1R]', '%', 11.1),
  ('[^18F]FB-PEG2-VGDLTYLKQKVART-PEG28 ({(18F)FB″-PEG2′}-VGDLTYLKQKVART[PEG28″]) [N-[^18F]T1-a]', '%', 31.1);
